These measurements were taken from patent US20220073608A1.

Documented MFI across a set of binders
# STUDY SYSTEM: T1, mouse SEMA4D, full length, on CHO-K1 cells (CHO-K1 mSEMA4D) (mouse, UniProt O09126 24-861)
# T1 construct: whole, on cells; also called murine SEMA4D recombinant cells
# T1 sequence (looked up): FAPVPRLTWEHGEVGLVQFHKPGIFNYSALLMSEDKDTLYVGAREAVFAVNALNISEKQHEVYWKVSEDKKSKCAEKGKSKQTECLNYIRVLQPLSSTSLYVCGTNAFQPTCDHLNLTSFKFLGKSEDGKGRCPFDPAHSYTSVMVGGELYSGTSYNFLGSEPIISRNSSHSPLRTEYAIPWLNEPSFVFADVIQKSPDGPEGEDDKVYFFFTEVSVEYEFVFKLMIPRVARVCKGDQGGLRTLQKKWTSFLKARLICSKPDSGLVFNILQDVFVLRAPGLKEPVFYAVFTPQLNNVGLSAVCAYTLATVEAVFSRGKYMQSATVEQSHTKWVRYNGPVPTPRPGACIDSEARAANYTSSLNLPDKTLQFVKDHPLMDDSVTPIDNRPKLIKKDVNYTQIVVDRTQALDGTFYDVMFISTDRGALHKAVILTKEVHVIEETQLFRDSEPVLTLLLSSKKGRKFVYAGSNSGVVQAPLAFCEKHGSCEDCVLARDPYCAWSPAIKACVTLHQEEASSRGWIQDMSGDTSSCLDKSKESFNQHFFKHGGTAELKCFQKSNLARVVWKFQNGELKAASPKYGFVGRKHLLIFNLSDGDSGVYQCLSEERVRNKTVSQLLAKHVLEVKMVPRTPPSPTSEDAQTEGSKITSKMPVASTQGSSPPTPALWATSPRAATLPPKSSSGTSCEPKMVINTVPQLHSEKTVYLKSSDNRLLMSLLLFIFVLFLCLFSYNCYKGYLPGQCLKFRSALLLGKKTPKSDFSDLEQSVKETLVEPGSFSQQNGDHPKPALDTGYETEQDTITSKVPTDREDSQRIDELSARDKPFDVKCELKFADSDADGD
# METHOD NOTES: FACS, CHO-K1 mSEMA4D cells; Ab 0.000853 nM
Form field (numeric): enter value without unit.

* 38H2E3 (antibody, V domains shown, Mouse monoclonal antibody purified from hybridoma supernatant on protein A) VH: EFQLQQSGPEVVKPGASVKISCKASGYSFTDYNMNWMKQSKGKSLEWIGVISPDYGTTTYNQNFKDKATLTVDQSSSTAYMQLNSLTSEDSAVYYCAKDMYYVYAYYTMDYWGHGTSVTVSS VL: DVVMTQTPLSLPVSLGDQASISCRSSQSLVHSNGHTYLHWYLQRPGQSPTLLIYKVSNRFSGVPDRVSGSGSGTDFTLKISRVEAEDLGVYFCSQGTHVPRTFGGGTKLEIK | 30.1

Next:
So, 31G10C5 (antibody, V domains shown, Mouse monoclonal antibody purified from hybridoma supernatant on protein A) VH: EVQLQQSGAELVRPGASVKLSCTASGFNIKDDYIHWVKQRPEQGLEWIGWIDPANGHIEYASNFQAKATITADTSSNTAYLQLSSLTSEDTAVYYCTTGDYDGFTYWGQGTLVTVST VL: QIVLTQSPAIMSASPGEKVTISCSARSSVSYMYWYQQKPGSSPKPWIYRTSNLASGVPARFSGSGSGTSYSLTISSMEAEDAATYYCQHYHTYPYTFGGGTKLEIK ? Its MFI was 30.1
